Recorded values, source patent US20230321103A1.

- assayed system: EGFR (G719D) (Homo sapiens, UniProt P00533, G719D)
- Sequence (P00533 25-1210 G719D): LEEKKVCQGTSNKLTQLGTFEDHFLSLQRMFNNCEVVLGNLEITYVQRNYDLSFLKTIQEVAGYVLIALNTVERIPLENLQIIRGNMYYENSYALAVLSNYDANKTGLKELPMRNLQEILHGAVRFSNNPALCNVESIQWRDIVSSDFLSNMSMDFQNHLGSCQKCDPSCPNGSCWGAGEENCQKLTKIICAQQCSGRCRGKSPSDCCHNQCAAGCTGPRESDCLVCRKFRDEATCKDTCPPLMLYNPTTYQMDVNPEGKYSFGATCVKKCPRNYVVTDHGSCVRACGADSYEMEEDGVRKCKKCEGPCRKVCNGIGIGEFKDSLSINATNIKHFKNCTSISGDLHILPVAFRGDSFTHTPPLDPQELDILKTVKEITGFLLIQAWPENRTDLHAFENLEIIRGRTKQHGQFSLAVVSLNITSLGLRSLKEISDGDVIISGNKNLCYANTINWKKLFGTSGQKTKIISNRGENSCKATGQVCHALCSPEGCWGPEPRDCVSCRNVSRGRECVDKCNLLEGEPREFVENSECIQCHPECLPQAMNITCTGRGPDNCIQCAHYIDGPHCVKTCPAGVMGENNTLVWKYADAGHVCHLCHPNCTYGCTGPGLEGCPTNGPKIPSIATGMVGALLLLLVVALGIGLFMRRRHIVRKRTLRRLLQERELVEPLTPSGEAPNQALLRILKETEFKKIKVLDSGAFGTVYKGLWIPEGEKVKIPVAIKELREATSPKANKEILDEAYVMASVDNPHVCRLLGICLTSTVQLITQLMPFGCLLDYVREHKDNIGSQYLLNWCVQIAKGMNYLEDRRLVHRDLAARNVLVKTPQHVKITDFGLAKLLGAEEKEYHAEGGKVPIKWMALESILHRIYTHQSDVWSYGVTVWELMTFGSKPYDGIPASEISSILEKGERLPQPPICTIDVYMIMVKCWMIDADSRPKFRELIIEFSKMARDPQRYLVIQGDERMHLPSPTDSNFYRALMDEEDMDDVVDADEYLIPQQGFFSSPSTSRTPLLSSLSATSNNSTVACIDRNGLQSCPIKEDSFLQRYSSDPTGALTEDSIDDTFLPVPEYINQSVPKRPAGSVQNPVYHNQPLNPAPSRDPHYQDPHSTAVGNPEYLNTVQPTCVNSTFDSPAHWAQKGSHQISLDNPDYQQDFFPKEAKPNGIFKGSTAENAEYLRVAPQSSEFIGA
- measurement notes: Kinase spectrum evaluation, radiometric 33P-ATP kinase assay
- assay setup: room temperature 2 h, 10 concentration gradients
Under this convention, TRUE denotes IC50 strictly below 3 nM and FALSE denotes IC50 at or above 3 nM.

C=CC(=O)Nc1cccc(-n2c(=O)c(-c3ccccc3)nc3cnc(Nc4ccc(N(C)CCN(C)C)cc4OC)nc32)c1 :: TRUE
C=CC(=O)Nc1cccc(-n2c(=O)c(-c3ccccc3)nc3cnc(Nc4ccc(N5CCN(C)CC5)c(OC)c4)nc32)c1 :: TRUE
C=CC(=O)Nc1cccc(-n2c(=O)c(-c3ccc(OC)cc3)nc3cnc(Nc4ccc(N5CCN(C)CC5)cc4OC)nc32)c1 :: TRUE

I'd appreciate it if you could check whether `C=CC(=O)Nc1cccc(-n2c(=O)c(C3CCCCC3)nc3cnc(Nc4ccc(N5CCN(C)CC5)cc4OC)nc32)c1` has IC50 smaller than 3 nM.
FALSE

---

- assayed system: EGFR (A763_Y764insFHEA) (Homo sapiens, UniProt P00533, INS763FHEA)
- Sequence (P00533 with tags, fused parts or gaps INS763FHEA limits assumed): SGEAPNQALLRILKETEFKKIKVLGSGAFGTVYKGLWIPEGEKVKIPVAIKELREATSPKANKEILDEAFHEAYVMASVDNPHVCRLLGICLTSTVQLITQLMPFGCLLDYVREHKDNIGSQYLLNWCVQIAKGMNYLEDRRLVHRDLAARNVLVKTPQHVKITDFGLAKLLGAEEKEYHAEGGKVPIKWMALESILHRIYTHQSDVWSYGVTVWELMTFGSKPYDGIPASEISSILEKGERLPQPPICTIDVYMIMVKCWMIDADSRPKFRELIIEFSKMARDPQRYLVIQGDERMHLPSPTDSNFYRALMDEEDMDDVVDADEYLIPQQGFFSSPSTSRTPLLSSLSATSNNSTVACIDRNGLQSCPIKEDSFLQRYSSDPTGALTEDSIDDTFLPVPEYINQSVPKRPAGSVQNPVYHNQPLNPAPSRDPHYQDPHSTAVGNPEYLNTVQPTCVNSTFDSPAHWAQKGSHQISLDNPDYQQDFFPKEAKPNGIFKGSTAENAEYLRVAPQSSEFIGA
- measurement notes: Kinase spectrum evaluation, radiometric 33P-ATP kinase assay
- assay setup: room temperature 2 h, 10 concentration gradients
Reported pIC50 values follow for various compounds
Please keep in mind that pIC50 is minus log10 of the molar concentration; only the number is needed.

Study these solved cases before continuing.
C=CC(=O)Nc1cccc(-n2c(=O)c(-c3ccccc3)nc3cnc(Nc4ccc(N(C)CCN(C)C)cc4OC)nc32)c1 :: 9.17
C=CC(=O)Nc1cccc(-n2c(=O)c(C3CCCCC3)nc3cnc(Nc4ccc(N5CCN(C)CC5)cc4OC)nc32)c1 :: 9.03
C=CC(=O)Nc1cccc(-n2c(=O)c(-c3ccccc3)nc3cnc(Nc4ccc(N5CCN(C)CC5)cc4OC)nc32)c1 :: 9.40
C=CC(=O)Nc1cccc(-n2c(=O)c(-c3ccccc3)nc3cnc(Nc4ccc(N5CCN(C)CC5)c(OC)c4)nc32)c1 :: 8.81
C=CC(=O)Nc1cccc(-n2c(=O)c(-c3ccc(F)cc3)nc3cnc(Nc4ccc(N5CCN(C)CC5)cc4OC)nc32)c1 :: 9.24

Pending compound:
Given the compound `C=CC(=O)Nc1cccc(-n2c(=O)c(-c3ccc(OC)cc3)nc3cnc(Nc4ccc(N5CCN(C)CC5)cc4OC)nc32)c1` , what is its reported pIC50?
9.11

---

- assayed system: EGFR (L858R) (Homo sapiens, UniProt P00533, L858R)
- Construct: purchased Reaction Biology Corporation (commissioned test)
- Sequence (P00533 25-1210 L858R): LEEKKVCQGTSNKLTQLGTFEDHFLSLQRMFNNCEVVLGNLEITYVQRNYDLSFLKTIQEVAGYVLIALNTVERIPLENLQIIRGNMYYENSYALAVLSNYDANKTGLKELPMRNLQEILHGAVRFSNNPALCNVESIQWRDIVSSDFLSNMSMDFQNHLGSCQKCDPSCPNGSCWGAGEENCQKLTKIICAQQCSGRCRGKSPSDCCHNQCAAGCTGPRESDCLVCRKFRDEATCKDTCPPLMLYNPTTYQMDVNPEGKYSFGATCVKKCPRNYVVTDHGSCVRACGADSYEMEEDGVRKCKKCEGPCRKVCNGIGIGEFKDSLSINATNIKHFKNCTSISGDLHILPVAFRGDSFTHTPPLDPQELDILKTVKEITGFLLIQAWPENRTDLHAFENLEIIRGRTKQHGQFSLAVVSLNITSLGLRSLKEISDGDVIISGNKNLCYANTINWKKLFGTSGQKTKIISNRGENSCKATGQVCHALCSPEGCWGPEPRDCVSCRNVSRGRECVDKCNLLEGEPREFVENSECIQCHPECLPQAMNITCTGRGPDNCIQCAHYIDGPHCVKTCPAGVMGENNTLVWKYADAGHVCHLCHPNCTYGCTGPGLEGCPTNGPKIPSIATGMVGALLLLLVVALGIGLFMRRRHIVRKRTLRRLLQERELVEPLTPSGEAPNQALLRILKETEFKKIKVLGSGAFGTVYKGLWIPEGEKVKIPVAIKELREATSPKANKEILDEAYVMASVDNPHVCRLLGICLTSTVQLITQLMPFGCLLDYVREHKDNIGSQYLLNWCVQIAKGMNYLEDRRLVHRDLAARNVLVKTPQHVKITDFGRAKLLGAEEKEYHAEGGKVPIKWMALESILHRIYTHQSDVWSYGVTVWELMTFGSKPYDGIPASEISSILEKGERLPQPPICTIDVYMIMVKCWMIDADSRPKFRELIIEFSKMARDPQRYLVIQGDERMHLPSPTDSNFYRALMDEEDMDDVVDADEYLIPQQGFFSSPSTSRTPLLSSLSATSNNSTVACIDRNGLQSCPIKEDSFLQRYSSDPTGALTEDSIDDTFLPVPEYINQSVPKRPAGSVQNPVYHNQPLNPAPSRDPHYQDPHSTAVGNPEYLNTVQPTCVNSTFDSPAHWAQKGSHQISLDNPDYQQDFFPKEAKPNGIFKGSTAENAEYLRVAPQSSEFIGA
- measurement notes: Kinase spectrum evaluation, radiometric 33P-ATP kinase assay
- Assay type: biochemical
- assay setup: room temperature 2 h, 10 concentration gradients
observed property: IC50 (nM)
Please reply with the bare figure in nM and do not write the unit itself.

Given the compound `C=CC(=O)Nc1cccc(-n2c(=O)c(-c3ccccc3)nc3cnc(Nc4ccc(N5CCN(C)CC5)cc4OC)nc32)c1` , what is its reported IC50?
0.17

---

- assayed system: EGFR (D761Y) (Homo sapiens, UniProt P00533, D761Y)
- Construct: purchased Reaction Biology Corporation (commissioned test)
- Sequence (P00533 25-1210 D761Y): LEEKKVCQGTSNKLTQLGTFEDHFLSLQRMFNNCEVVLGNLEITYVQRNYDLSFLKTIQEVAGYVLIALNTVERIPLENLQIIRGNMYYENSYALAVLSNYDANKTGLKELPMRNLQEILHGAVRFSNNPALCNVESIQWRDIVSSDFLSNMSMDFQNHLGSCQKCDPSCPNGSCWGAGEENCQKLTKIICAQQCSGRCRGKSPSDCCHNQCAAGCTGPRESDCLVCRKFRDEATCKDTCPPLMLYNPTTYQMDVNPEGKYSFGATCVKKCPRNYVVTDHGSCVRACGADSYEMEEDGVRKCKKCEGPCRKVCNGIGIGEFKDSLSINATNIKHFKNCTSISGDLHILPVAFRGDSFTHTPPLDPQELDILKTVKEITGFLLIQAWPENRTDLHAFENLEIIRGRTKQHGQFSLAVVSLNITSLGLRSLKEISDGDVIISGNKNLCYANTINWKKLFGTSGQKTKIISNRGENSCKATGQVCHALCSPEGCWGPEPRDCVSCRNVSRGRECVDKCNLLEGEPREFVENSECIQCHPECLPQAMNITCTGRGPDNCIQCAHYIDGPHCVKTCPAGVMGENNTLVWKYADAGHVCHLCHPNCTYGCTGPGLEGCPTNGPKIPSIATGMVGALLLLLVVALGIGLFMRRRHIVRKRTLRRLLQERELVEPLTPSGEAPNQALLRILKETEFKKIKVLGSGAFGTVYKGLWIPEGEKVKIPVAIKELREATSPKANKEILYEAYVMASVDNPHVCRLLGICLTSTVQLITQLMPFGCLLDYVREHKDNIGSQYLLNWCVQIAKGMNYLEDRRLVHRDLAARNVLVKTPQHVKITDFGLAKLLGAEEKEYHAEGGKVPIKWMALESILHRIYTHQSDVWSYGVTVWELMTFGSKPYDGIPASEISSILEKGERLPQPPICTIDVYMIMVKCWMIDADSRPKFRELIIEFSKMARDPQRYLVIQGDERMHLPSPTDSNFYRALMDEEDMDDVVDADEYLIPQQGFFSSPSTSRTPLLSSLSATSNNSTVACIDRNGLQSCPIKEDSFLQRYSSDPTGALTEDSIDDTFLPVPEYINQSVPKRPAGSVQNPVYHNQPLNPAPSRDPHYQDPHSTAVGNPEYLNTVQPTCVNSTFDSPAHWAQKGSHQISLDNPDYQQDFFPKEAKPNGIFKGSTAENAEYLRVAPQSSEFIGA
- measurement notes: Kinase spectrum evaluation, radiometric 33P-ATP kinase assay
- Format: biochemical
- assay setup: room temperature 2 h, 10 concentration gradients
observed property: pIC50
Please keep in mind that pIC50 is minus log10 of the molar concentration; only the number is needed.

C=CC(=O)Nc1cccc(-n2c(=O)c(-c3ccc(OC)cc3)nc3cnc(Nc4ccc(N5CCN(C)CC5)cc4OC)nc32)c1 :: 9.21
C=CC(=O)Nc1cccc(-n2c(=O)c(-c3ccc(F)cc3)nc3cnc(Nc4ccc(N5CCN(C)CC5)cc4OC)nc32)c1 :: 9.35
C=CC(=O)Nc1cccc(-n2c(=O)c(-c3ccccc3)nc3cnc(Nc4ccc(N5CCN(C)CC5)c(OC)c4)nc32)c1 :: 9.11

Given the compound `C=CC(=O)Nc1cccc(-n2c(=O)c(-c3ccccc3)nc3cnc(Nc4ccc(N(C)CCN(C)C)cc4OC)nc32)c1` , what is its reported pIC50?
9.47

Please give the result for `C=CC(=O)Nc1cccc(-n2c(=O)c(C3CCCCC3)nc3cnc(Nc4ccc(N5CCN(C)CC5)cc4OC)nc32)c1` too.
9.00
